- Tested on: KRAS-mutant PDC tumor spheroid with HUVEC/MSC, viability;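 also: spheroids exposed to agents for seven days before reading; 100% = DMSO vehicle wells so lower means fewer viable cells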
- Protocol: Anticancer human tumor 327498-153-R-J2-PDC patient-derived uterine carcinosarcoma cell line growth inhibition [KRAS2]
- Applied Conditions: second compound 0.1 µM; first compound 0.316 µM; hits give low values
Documented viability, T/C across a set of molecules

[
  {
    "Molecule": "CC1OCC2(CCN(c3cnc(Sc4ccnc(N)c4Cl)c(N)n3)CC2)C1N (stereo not drawn) + C=CC(=O)N1CCN(c2nc(OCC3CCCN3C)nc3c2CCN(c2cccc4cccc(C)c24)C3)CC1CC#N",
    "Value Unit": "%",
    "viability, T/C": 24.9
  },
  {
    "Molecule": "CC(C)NCC(C(=O)N1CCN(c2ncnc3c2C(C)CC3O)CC1)c1ccc(Cl)cc1 (stereo not drawn) + CNCc1ccccc1-c1csc(C(C)Nc2nc(C)nc3cc(OC)c(OC)cc23)c1",
    "Value Unit": "%",
    "viability, T/C": 45
  },
  {
    "Molecule": "COC(=O)c1ccc2c(C(=Nc3ccc(N(C)C(=O)CN4CCN(C)CC4)cc3)c3ccccc3)c(O)[nH]c2c1 + C=CC(=O)N1CCN(c2nc(OCC3CCCN3C)nc3c2CCN(c2cccc4cccc(C)c24)C3)CC1CC#N",
    "Value Unit": "%",
    "viability, T/C": 37.1
  },
  {
    "Molecule": "COC(=O)c1ccc2c(C(=Nc3ccc(N(C)C(=O)CN4CCN(C)CC4)cc3)c3ccccc3)c(O)[nH]c2c1 + CC1OCC2(CCN(c3cnc(Sc4ccnc(N)c4Cl)c(N)n3)CC2)C1N",
    "Value Unit": "%",
    "viability, T/C": 58
  },
  {
    "Molecule": "CCNC(=O)CC1N=C(c2ccc(Cl)cc2)c2cc(OC)ccc2-n2c(C)nnc21 (stereo not drawn) + CNCc1ccccc1-c1csc(C(C)Nc2nc(C)nc3cc(OC)c(OC)cc23)c1",
    "Value Unit": "%",
    "viability, T/C": 59
  },
  {
    "Molecule": "Cn1nccc1Nc1nccc(-c2cc3c(s2)C(C)(C)N(CCN2CCOCC2)C3=O)n1 + COc1cc2nc(C)nc(NC(C)c3cc(N)cc(C(F)(F)F)c3)c2cc1OC1CCOC1",
    "Value Unit": "%",
    "viability, T/C": 57.6
  },
  {
    "Molecule": "Cn1nccc1Nc1nccc(-c2cc3c(s2)C(C)(C)N(CCN2CCOCC2)C3=O)n1 + C=CC(=O)N1CCN(c2nc(=O)n(-c3c(C)ccnc3C(C)C)c3nc(-c4c(O)cccc4F)c(F)cc23)C(C)C1",
    "Value Unit": "%",
    "viability, T/C": 55.8
  },
  {
    "Molecule": "Cn1nccc1Nc1nccc(-c2cc3c(s2)C(C)(C)N(CCN2CCOCC2)C3=O)n1 + C=CC(=O)N1CCN(c2nc(OCC3CCCN3C)nc3c2CCN(c2cccc4cccc(C)c24)C3)CC1CC#N",
    "Value Unit": "%",
    "viability, T/C": 45.5
  }
]
